B1: VTI1B (parent)
chain: NKLLLSIIILLELAILGGLVYYKF

variants of: B1; assay: protein stability index of a GFP-peptide fusion (GPS, HEK-293T) (PSI 1-6); higher = more stable; conditions: c terminus: a fixed tail appended;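 also: lentivirally expressed fusions sorted by FACS into six bins by GFP to DsRed ratio, PSI derived from sequencing read proportions per bin multiplied by bin number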
Classify by measured protein stability index: MET if it is equal to or exceeds 3, NOT MET if it is smaller.

Worked examples, 10 variants total:
L10E = MET
K23V = MET
G18W = NOT MET
A14H = MET
L16V = NOT MET
S6E = MET
L13W = MET
G18Q = NOT MET
I8D = MET
Y22K = NOT MET

q: Test whether the variant L19A records protein stability index of 3 or higher.
a: MET

q: Answer whether protein stability index of N1M is greater than or equal to 3.
a: NOT MET

q: Could you verify whether the entry Y22F shows protein stability index of no less than 3?
a: NOT MET

q: Identify whether the reported protein stability index of the following variant is 3 or greater: Y22L
a: MET

q: Please check the record G17W and state if its protein stability index is at or above 3.
a: MET

q: Determine whether measured protein stability index meets or exceeds 3 for G17C
a: MET

q: Would you say F24E shows protein stability index at minimum 3?
a: MET

q: Is reported protein stability index greater than or equal to 3 here: V20T
a: MET

q: Check if protein stability index >= 3 (inclusive). Item: L10V
a: MET

q: Quick check, protein stability index >= 3? L13H
a: MET

q: Does L10N have a reported protein stability index of at least 3?
a: NOT MET

q: Does the reported protein stability index for I8G fall at or above the 3 mark?
a: NOT MET

q: I'd appreciate it if you could say whether K2E has protein stability index at least equal to 3.
a: NOT MET

q: Hi, just wondering whether Y21V shows protein stability index of 3 or higher.
a: NOT MET

q: Form field: protein stability index at least 3? Entry: L16R
a: NOT MET

q: Decide: is the reported value of protein stability index for N1G equal to or greater than 3?
a: MET

q: Has G18L a recorded protein stability index greater than or equal to 3?
a: NOT MET

q: Record K23P ; criterion: protein stability index no lower than 3. Met?
a: MET
